test system: Chordin-like protein 2 (CHRDL2); test: compounds binding chordin-like 2 – biochemical, small-molecule microarray, 635 nm fluorescence, primary screen (AID 1126); details: fluorescence 635 nm, higher = more signal;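 note: printed compound slides probed with Chrdl2 protein at 4 µg/mL for 1 h at 4 C; score merges 667 nm emission intensity with signal to noise over three replicate slides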
composite z-score values, listed per item

Answered examples (5):
- compound-string: "COC(=O)[C@@]1(Cc2ccc(F)cc2)[C@H]2c3cc(C(=O)N(C)C)n(Cc4cc(C)n(C)n4)c3C[C@H]2CN1C(=O)c1ccccc1"
  measurement-label: "composite z-score"
  result: -0.141
- compound-string: "C=C(/C(=C/C[C@H](OC(=O)c1ccncc1)c1ccc(OCCO)cc1)c1cc(C(=O)OC)ccc1OC)C(C)C"
  measurement-label: "composite z-score"
  result: -0.0985
- compound-string: "CN(C)C(=O)[C@]1(Cc2ccccc2)N=C(c2ccc(OCCCO)cc2)O[C@@H]1c1ccccc1N=[N+]=[N-]"
  measurement-label: "composite z-score"
  result: -0.199
- compound-string: "C=CCN1C(=O)[C@]2(O[C@H](CCO)[C@@H]([Si](C)(C)c3ccc(OC)cc3)[C@@H]2C)c2cc(N(C=O)c3ccccc3)ccc21"
  measurement-label: "composite z-score"
  result: -0.0095
- compound-string: "COC(=O)[C@]1(Cc2ccccc2)N=C(c2ccc(OCCCO)cc2)O[C@@H]1c1ccccc1N=[N+]=[N-]"
  measurement-label: "composite z-score"
  result: 0.315

Shifting focus to the molecule that follows.
Endpoint output: composite z-score of COC(=O)[C@@]1(Cc2ccc(F)cc2)[C@H]2c3cc(C(=O)N(C)C)n(Cc4ccc(C)o4)c3C[C@H]2CN1C(=O)c1ccccc1 . Value?
-0.852
